System: UniProt:P00918
Test name: Enzymatic carbonic anhydrase inhibition assay (modification of Maren's micromethod)
Assay type: biochemical
Measurement setup: relative to acetazolamide control = 100%
Record form. Attribute: Relative CA inhibition Potency. Fill in for each entry.

> print(dat)
                                   molecule  result
1  NS(=O)(=O)c1nnc(NC(CCC(=O)O)C(=O)O)s1 (stereo not shown)     22%
2  NS(=O)(=O)c1nnc(NC(CCCC(=O)O)C(=O)O)s1 (stereo not shown)     20%
3  NS(=O)(=O)c1nnc(NC(CC(=O)O)C(=O)O)s1 (stereo not shown)     48%

# input for lookup
Prompt: Field request: Relative CA inhibition Potency | item: NS(=O)(=O)c1nnc(NC(CCC(=O)O)CC(=O)O)s1 (stereo not shown)
Completion: 60%
